Data origin, for the record: PubChem BioAssay (NCI)

system: PC-3 prostate; assay: NCI-60 one-dose screen, 48 h; conditions: 10 µM unless noted
About 83,000 compounds went through this panel and 20% of them were active in at least one assay; those are over-represented in the sample as a whole. Calls of active or inactive are those of the source. The calls were made as follows: active = growth percent below 10; inactive = the rest.
Answer with one of the outcomes True = active, False = inactive

// param item: C#CCOc1ccc(/C=N\Nc2nc(-c3ccc(C)cc3)cs2)cc1OC ; yields the recorded call
False

Same lookup for NC(N)=Nc1ccc(Oc2cccc(Nc3ccc(Cl)cc3)c2)cn1 , please.
True

Same lookup for O=C(NNc1nc2cc(F)cc(F)c2n2cccc12)c1cnccn1 , please.
False

Same lookup for O=C(Nc1ccc(N=Cc2c(O)[nH]c3ccccc23)cc1)Nc1nccs1 , please.
False

Same lookup for COc1ccc(NC2=C(Cl)C(=O)c3nc(C)ccc3C2=O)cc1OC , please.
False

Same lookup for c1ccc(C(c2nc3ncncc3[nH]2)N2CSc3nc4ccccc4n3C2)cc1 (stereo unspecified) , please.
False

Same lookup for CS(=O)(=O)c1ncc(-c2ccccc2)cn1 , please.
False

Same lookup for Cc1cc(C)cc(C(=O)Nc2cccc(C#Cc3cccc4[nH]nc(N)c34)c2)c1 , please.
False

Same lookup for CC(=O)C1=C(C)NC(NNC(N)=S)=NC1c1ccccc1 (stereo unspecified) , please.
False

Same lookup for O=S(=O)(NCCCNc1nccc(-n2cnc3ccccc32)n1)c1ccc(C(F)(F)F)cc1 , please.
False

Same lookup for O=C(CN1CCN(c2cc(=O)n(-c3ccccc3)c3ccccc23)CC1)Nc1nc(-c2ccc(Cl)cc2)cs1 , please.
False

Same lookup for COc1cc(OC)c(S(N)(=O)=O)cc1C(C)=O , please.
False

Same lookup for NC(N)=Nc1ccc(Oc2cccc(NC(N)=Nc3ccc(I)cc3F)c2)cc1 , please.
False

Same lookup for COc1ccc(-n2c(SCc3n[nH]c(=S)o3)nc3ccc(Cl)cc3c2=O)cc1 , please.
False

Same lookup for COc1cc(-c2nc(SC(C)C)n(C(C)C)c(=O)c2C#N)ccc1OCc1ccccc1 , please.
False

Same lookup for CCC(NC(c1cc2cccc3ccc4cccc1c4c32)c1nnnn1C(C)(C)C)C1CCCCC1 (stereo unspecified) , please.
False

Same lookup for FC(F)(F)c1cc(Nc2cccc(Oc3ccc(NC4=NCCN4)nc3)c2)ccc1Cl , please.
True

Same lookup for COc1ccc(C(=O)Nc2ncc(Cc3ccccc3Cl)s2)cc1 , please.
False

Same lookup for CN1CCN(Cc2ccc(NC(=O)c3cncc(C#Cc4cnc5ccc(NCCCO)nn45)c3)cc2C(F)(F)F)CC1 , please.
True

Same lookup for COc1ccc(-n2c(SCc3nnc(NC(=O)c4ccc(Br)cc4)s3)nc3cc(OC)c(OC)cc3c2=O)cc1 , please.
False

Same lookup for COc1cc(-c2nn(C(C)(C)C)cc2-c2ccnc(NCCCNS(=O)(=O)c3ccc(F)cc3)n2)ccc1Cl , please.
False

###

Test system: HCC-2998 colon
Assay: NCI-60 one-dose screen, 48 h
Details: 10 µM unless noted
Experimental: Growth inhibition of the HCC-2998 human tumor cell line is measured as a screen for anti-cancer activity. Cells are grown in 96 well plates and exposed to the test compound for 48 hours. Compounds are tested at a single concentration, which is 10^-5 M for most compounds. The reported endpoint is percent growth (GI% or GIPRCNT), where numbers from 0 - 100% represent growth inhibition, and numbers from -100% - 0 represent cell death. For example, a value of 40 represents 60% growth inhibition. […]
About 83,000 compounds went through this panel and 20% of them were active in at least one assay; those are over-represented in the sample as a whole. Calls of active or inactive are those of the source. The calls were made as follows: active = growth percent below 10; inactive = the rest.
Answer with one of the outcomes true (1) for active, false (0) for inactive

// param item: O=C(Nc1ccc(N=Cc2c(O)[nH]c3ccccc23)cc1)Nc1nccs1 ; yields the recorded call
false (0)

Same lookup for O=C(NCc1ncc[nH]1)c1ccc(-c2nc3ccc4[nH]ncc4c3c3c2CCCC3)cc1 , please.
false (0)

Same lookup for CN1CCN(Cc2ccc(NC(=O)c3cncc(C#Cc4cnc5ccc(OCC6(C)COC6)nn45)c3)cc2C(F)(F)F)CC1 , please.
true (1)

Same lookup for Cc1ccc(NC(=O)N[C@@H](Cc2cc(F)cc(F)c2)C(=O)NC2C(=O)N3C[C@H](O)C[C@H]3C(=O)N3CCCC[C@H]3C(=O)N[C@@H](CO)C(=O)N3C[C@H](C)C[C@H]3C(=O)O[C@H]2C)c(F)c1 (stereo partly drawn) , please.
false (0)

Same lookup for O=S(=O)(NCCCNc1nccc(-n2cnc3ccccc32)n1)c1ccc(C(F)(F)F)cc1 , please.
false (0)

Same lookup for CCNC(=O)N1CCc2cc(OC)c(OCCc3ccc(OC)cc3)cc2C1c1ccc([N+](=O)[O-])cc1C (stereo not drawn) , please.
false (0)

Same lookup for COc1cc2oc(-c3cccc(NC(=O)c4cc(N)ccc4Cl)c3)cc(=O)c2c(OC)c1OC , please.
false (0)

Same lookup for Cc1nc2ncc(-c3ccc4ncnc(NCc5ccccc5)c4c3)cc2[nH]1 , please.
false (0)

Same lookup for CN(Cc1ccccc1)S(=O)(=O)/N=C1\NC(=O)NC1=C(Cl)Cl , please.
false (0)

Same lookup for COc1ccc(/C=C/C(=O)c2cccc(NC(=O)CSc3nc4ccccc4c(=O)n3-c3ccccc3)c2)cc1OC , please.
false (0)

Same lookup for Cc1ccc(-c2cc3nc(C(Cl)Cl)nc(C)n3n2)cc1 , please.
false (0)

Same lookup for COc1cc2oc(-c3cccc(N)c3)cc(=O)c2c(OC)c1OC , please.
false (0)

Same lookup for c1ccc(C(c2nc3ncncc3[nH]2)N2CSc3nc4ncncc4n3C2)cc1 (stereo not drawn) , please.
false (0)

Same lookup for NS(=O)(=O)c1ccc(Nc2nc(Nc3ccccc3)nc3nnc(SCC(=O)NC4CCCCC4)n23)cc1 , please.
false (0)

Same lookup for COC(=O)C1(C)CCC[C@]2(C)[C@H]3C[C@H]4C(C(C)C)=C[C@]3(CC[C@@H]12)[C@H]1[C@@H]4[C@@H](OC(=O)c2ccco2)CC[C@@H]1OC(=O)c1ccco1 (stereo partly drawn) , please.
false (0)

Same lookup for Cc1ccc(-n2c(/C=C3\C(=O)Nc4ccccc43)ccc2CO)cc1 , please.
false (0)

Same lookup for C=CCn1c(SCC(=O)Nc2ccc(C(=O)/C=C/c3ccc(Br)cc3)cc2)nnc1-c1c[nH]c2ccccc12 , please.
false (0)

Same lookup for C#CCOC(=O)[C@@H]1CCCN1CC#C , please.
false (0)
